# MEASUREMENT_NOTES: protein stability index of a GFP-peptide fusion (GPS, HEK-293T) (PSI 1-6); higher = more stable;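 also: 24-mer peptide tiles fused after GFP, lentivirally expressed, FACS-sorted into six equal bins by GFP/DsRed ratio, decoded by Illumina sequencing, PSI is the read-weighted mean bin number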
# TEST_SETTINGS: treatment: DMSO; c terminus: a fixed tail appended
READOUT_NAME: protein stability index
Please give only the number in your answer, with no unit.

Solved cases below.
[[record]]
chain = "GAEDGDRAILYPCHGMSSQLVRYS [GALNT9]"
numeric_result = 3.09

[[record]]
chain = "AKYCGHLYGLGSGSSYVQNGTGNA [CNOT7]"
numeric_result = 2.8

[[record]]
chain = "VEVLVDLFLKEGACDELFSYLIEK [PRAME]"
numeric_result = 2.55

[[record]]
chain = "PDVTRVGLLQYGSTVKNEFSLKTF [MATN2]"
numeric_result = 2.94

[[record]]
chain = "VSSSQDGKVIVWDSFTTNKEHAVT [GNB5]"
numeric_result = 3.51

[[record]]
chain = "AMPMQDIKMILKMVQLDSIEDLEV [PRAME]"
numeric_result = 2.25

[[record]]
chain = "KRKVDTGGFLSESKDCKPPVYLLL [MYBL2]"
numeric_result = 2.01

[[record]]
chain = "DEVDDFEDFIFSHFFGDKALKKRS [PBXIP1]"
numeric_result = 3.26


Specify protein stability index for AIQYALNIAFSEAEGARPLRENVP [MATN2] and stop. 2.36

Name the recorded protein stability index of the item REPPQAVSIKEAAGSSNLPAPERT [VENTX] in your answer. 5.26

Quote protein stability index reported for KALWEDKTSLWEEENALWEEERAF [CCDC70] please. 3.79
